# Test System: SIRT1 (Homo sapiens, UniProt Q96EB6)
# Sequence (Q96EB6 whole entry): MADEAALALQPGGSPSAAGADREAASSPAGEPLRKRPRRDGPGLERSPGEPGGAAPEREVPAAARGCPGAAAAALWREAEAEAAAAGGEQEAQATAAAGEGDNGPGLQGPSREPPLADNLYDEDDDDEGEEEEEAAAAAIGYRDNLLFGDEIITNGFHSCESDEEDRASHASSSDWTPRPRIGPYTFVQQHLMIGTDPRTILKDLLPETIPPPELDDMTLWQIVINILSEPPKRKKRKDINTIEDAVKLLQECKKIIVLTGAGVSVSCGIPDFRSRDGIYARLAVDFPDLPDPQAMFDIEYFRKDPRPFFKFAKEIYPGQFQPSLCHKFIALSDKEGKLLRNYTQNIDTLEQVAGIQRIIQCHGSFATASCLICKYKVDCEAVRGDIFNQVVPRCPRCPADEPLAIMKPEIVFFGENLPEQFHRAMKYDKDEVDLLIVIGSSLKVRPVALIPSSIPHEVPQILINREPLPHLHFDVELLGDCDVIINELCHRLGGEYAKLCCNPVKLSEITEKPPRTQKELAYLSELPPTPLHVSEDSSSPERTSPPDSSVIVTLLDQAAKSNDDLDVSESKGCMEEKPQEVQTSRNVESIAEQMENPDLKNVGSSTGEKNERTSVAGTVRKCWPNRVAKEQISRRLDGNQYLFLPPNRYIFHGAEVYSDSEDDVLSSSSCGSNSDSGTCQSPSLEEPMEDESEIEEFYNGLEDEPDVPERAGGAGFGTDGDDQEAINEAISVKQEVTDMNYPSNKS
# Procedure Summary: TAMRA based mass spectrometry assay of SIRT1 activity
# Assay type: biochemical
# Study Conditions: TAMRA assay; concentration giving 150% activation of SIRT1

Molecule	TAMRA EC1.5 (μM)
Cc1ncccc1C(=O)Nc1cnc2ccc(-c3ccccc3C(F)(F)F)nn12	C (EC1.5>25 μM)
Cc1cc(-c2ccccc2C(F)(F)F)nn2c(C(=O)Nc3cc(N4CCCC4)ncn3)cnc12	A (EC1.5<1 μM)
Cc1ccc(NC(=O)c2cnn3ccc(-c4ccccc4C(F)(F)F)nc23)nn1	A (EC1.5<1 μM)
O=C(Nc1cnc2ccc(-c3ccccc3C(F)(F)F)nn12)c1cnc(O)cn1	A (EC1.5<1 μM)
Cc1nc2ccc(-c3ccccc3OC[C@H](O)CO)nn2c1C(=O)Nc1ccncn1	A (EC1.5<1 μM)
CCOc1ccc(NC(=O)c2c(C)nc3ccc(-c4ccccc4C(F)(F)F)nn23)nn1	A (EC1.5<1 μM)
Cc1csc(NC(=O)c2cnn3ccc(-c4ccccc4OC(F)(F)F)nc23)n1	A (EC1.5<1 μM)
Cc1cc(-c2ccccc2C(F)(F)F)nn2c(C(=O)Nc3ccnc(O[C@H]4CCOC4)n3)cnc12	A (EC1.5<1 μM)
Cc1nc(C(=O)Nc2cnc3ccc(-c4ccccc4Cl)nn23)cs1	A (EC1.5<1 μM)
O=C(Nc1ccc(N2CCOCC2)nc1)c1cnc2ccc(-c3ccccc3C(F)(F)F)nn12	B (EC1.5 1-25 μM)
O=C(Nc1ncc(F)cc1F)c1cnn2ccc(-c3ccccc3OC(F)(F)F)nc12	C (EC1.5>25 μM)
O=C(Nc1cnc2ccc(-c3ccccc3Cl)nn12)c1cccc(OCC(O)CO)n1 (centres unmarked)	A (EC1.5<1 μM)
O=C(Nc1cnc2ccc(-c3ccccc3Cl)nn12)c1cscn1	B (EC1.5 1-25 μM)
Cc1cc(-c2ccccc2C(F)(F)F)nn2c(C(=O)Nc3ccnc(N4CC5(CCS5(=O)=O)C4)n3)cnc12	A (EC1.5<1 μM)
Cc1cnc(C(=O)Nc2cnc3ccc(-c4ccccc4C(F)(F)F)nn23)cn1	A (EC1.5<1 μM)
Cc1ccnc(NC(=O)c2cnc3ccc(-c4ccccc4C(F)(F)F)nn23)n1	A (EC1.5<1 μM)
Cc1cncc(NC(=O)c2cnn3ccc(-c4ccccc4C(F)(F)F)nc23)n1	A (EC1.5<1 μM)

Ref: patent US9957271B2
